# target_entity: Recombinant human his-tagged IGF 1R extracellular domain protein (human) (UniProt P08069)
# method_notes: SPR, captured antibody, pH 7.4
parameter: koff
Quick note: unit goes after the number.

Sample records with koff:
>  <binder>
VRDN-03135 (antibody, V domains shown) VH: EVQLVESGGGVVQPGRSLRLSCAASGFTFDDYAMHWVRQAPGKGLEWVAIIWFDGSSKYYADSVKGRFTISRDNSKNTLYLQMNSLRAEDTAVYYCARELGRRYFDIWGQGTLVTVSS VL: EIVMTQSPATLSVSPGERATLSCRASQGVSSNLAWYQQKPGQAPRLLIYGASTRATGIPARFSGSGSGTEFTLTISSLQSEDFAVYYCQQRSRWPPWTFGGGTKLEIK

>  <koff>
0.000414 s⁻¹

$$$$
>  <binder>
VRDN-03053 (antibody, V domains shown) VH: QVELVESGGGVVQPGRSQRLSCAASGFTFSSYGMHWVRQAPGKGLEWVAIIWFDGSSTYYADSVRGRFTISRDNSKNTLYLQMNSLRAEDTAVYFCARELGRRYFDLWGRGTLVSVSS VL: EIVLTQSPATLSLSPGERATLSCRASQSVSSYLAWYQQKPGQAPRLLIYDASKHATGIPARFSGSGSGTDFTLTISSLEPEDFAVYYCQQRSKWPPWTFGQGTKVESK

>  <koff>
0.000188 s⁻¹

$$$$
>  <binder>
VRDN-03047 (antibody, V domains shown) VH: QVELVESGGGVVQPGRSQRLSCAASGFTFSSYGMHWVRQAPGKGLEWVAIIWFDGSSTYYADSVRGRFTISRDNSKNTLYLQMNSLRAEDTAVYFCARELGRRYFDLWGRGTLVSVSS VL: EIVLTQSPATLSLSPGERATLSCRASQSVSSYHAWYQQKPGQAPRLLIYDASKRATGIPARFSGSGSGTDFTLTISSLEPEDFAVYYCQQRSKWPPWTFGQGTKVESK

>  <koff>
0.000282 s⁻¹

$$$$

Task: // returns reported koff for input VRDN-03110 (antibody, V domains shown) VH: QVQLVESGGGVVQPGRSLRLSCAASGFTFSDYTMHWVRQAPGKGLEWVAIIWFDGSSKYYADSVKGRFTISRDNSKNTLYLQMNSLRAEDTAVYYCARELGRRYFDIWGRGTLVTVSS VL: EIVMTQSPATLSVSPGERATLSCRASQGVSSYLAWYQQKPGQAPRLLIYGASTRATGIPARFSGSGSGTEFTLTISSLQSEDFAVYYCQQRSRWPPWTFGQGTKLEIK
Result: 0.000209 s⁻¹

Task: Param item = VRDN-03133 (antibody, V domains shown) VH: EVQLVESGGGVVQPGRSLRLSCAASGFTFSSYSMHWVRQAPGKGLEWVAVIWYDGSSKYYADSVKSRFTISRDNSKNTLYLQMNSLRAEDTAVYYCARELGRRYFDIWGRGTLVTVSS VL: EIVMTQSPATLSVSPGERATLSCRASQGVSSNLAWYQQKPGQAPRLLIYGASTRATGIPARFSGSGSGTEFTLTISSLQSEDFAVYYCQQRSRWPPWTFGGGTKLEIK ; retrieve measured koff.
Result: 0.00228 s⁻¹
